- Tested on: UACC-62 melanoma
- Method Summary: NCI tumour cell line growth inhibition, 48 h
Record T whenever TGI is at 20 µM or higher; record F when lower.

Example entries begin here.
O=C1/C(=C\c2cccc(Oc3ccccc3)c2)S(=O)(=O)C(c2ccccc2)N1c1ccc(Cl)cc1 (stereo not drawn) = T
CCCCCNc1nonc1N = T
CCc1n[nH]c(=O)n1/N=C/c1ccccc1Cl = T
CN(C)c1ccc(/C=C(\C#N)C(N)=C(C#N)C#N)cc1 = T
Cc1cc2c(=O)n(-c3ccc(F)cc3)c(C)nc2c(C(=O)O)c1C = T
COc1ccc(C(=O)c2ccc(OC)c(OC)c2OC)cc1 = T
Cn1c2c(c3ccccc31)C1CCCCC1C1C(=O)NC(=O)C21 (stereo not drawn) = T
CC(C)C1(C)N=C(C(F)(F)F)c2cc(C(=O)C(F)(F)F)c3ccccc3c2N1 (stereo not drawn) = F

Exam item: Reported TGI at or above 20 µM? COC1(OC)CC2C=C(S(=O)(=O)c3ccccc3)C1N(Cc1ccccc1)C2=O (stereo not drawn)
Marked response: T

Exam item: Textbook exercise: given the entry `COc1ccc(N=C(C)c2ccncc2)cc1` , state whether its TGI is greater than or equal to 20 µM.
Marked response: T

Exam item: Confirm if TGI reported for the compound `CC(C)NC(=O)CN1CCN(C2=CC(=O)c3c(O)ccc(O)c3C2=O)CC1` is 20 µM or above.
Marked response: F

Exam item: Hi team, for CC(C)(C)[Si](C)(C)OCC1OC(n2cnc3c(NC(=O)c4ccccc4)ncnc32)CC1O (stereo not drawn) , is the recorded TGI at or above 20 µM?
Marked response: T

Exam item: // inclusive: TGI at least 20 µM? input: `CCOc1ccc(/C(O)=C/c2nc3ccccc3nc2/C=C(\O)c2ccc(OCC)cc2)cc1`
Marked response: T

Exam item: State whether the measured TGI reaches 20 µM, counting equality as reaching it, for `N#Cc1c(-c2ccc([N+](=O)[O-])cc2)cc(-c2ccc(Nc3ccnc4cc(C(F)(F)F)ccc34)cc2)nc1N`
Marked response: T

Exam item: Form field: TGI at least 20 µM? Entry: `Cc1ccc(NC(=O)c2cccc([N+](=O)[O-])c2O)c([N+](=O)[O-])c1`
Marked response: T

---

- Test system: NCI-H522 lung
- Method Summary: NCI tumour cell line growth inhibition, 48 h
Record form. Attribute: GI50. Fill in for each entry.

Completed entries (count: 5):
CCCCCCCCCCCCCCCCCC1=NCCN1CS(=O)(=O)O = 24.5 µM
O=[N+]([O-])c1ccc(-c2nc(-c3ccccc3)c(-c3ccccc3)n2-c2ccccc2)cc1 = 3.05 µM
OCCCN=NNc1ccc(-c2nc3ccccc3[nH]2)cc1 = 12.5 µM
COc1cc(NCCCCN=C(N)NC(N)=NC(C)C)c2ncccc2c1 = 0.929 µM
CCCCCCCC/C=C/CCCCCCCCC1=NCCN1CCO = 6.34 µM

Exam item: Given the compound CCCCCC(O)C1C(=O)OC(C)C(O)/C=C/C=C/C=C/C=C\C=C(\C)C(O)CC(O)CC(O)CC(O)CC(O)CC(O)CC1O (stereo unspecified) , what is its reported GI50?
Marked response: > 100 µM

---

- Tested on: SK-OV-3 ovarian
- Method Summary: NCI tumour cell line growth inhibition, 48 h
Observation Type: TGI

COc1cc2c(c(C)c1O)[C@H]1COc3ccccc3[C@H]1O2 = > 100 µM
COc1cccc(NC(=S)Nn2c(C)nc3ccccc3c2=O)c1 = > 100 µM
O=C(CO)CC(=O)C(=O)Nc1nc([N+](=O)[O-])cs1 = > 100 µM
COC(=O)c1ccc2c(c1)nc(-c1cc3ccccc3[nH]c1=O)n2-c1cc(C(C)(C)C)[nH]n1 = > 100 µM
Cc1ccc(-c2nc(SCC(=O)O)n[nH]2)cc1 = > 100 µM

Give TGI for each listed item.
1. Cc1ccc(S(=O)(=O)NN=C2CCCCCCCCCCC2)cc1
2. CCNCC(=O)O[C@]1(CC)C(=O)OCc2c1cc1n(c2=O)Cc2cc3ccccc3nc2-1

Marked response:
["> 100 µM", "10.8 µM"]
